- assay-remarks: Biodistribution of 67Ga-radiolabeled peptides
- Parameters: species or system mouse
- measurement-parameters: female, CD1, mouse, in vivo, iv, 100 uCi, total radioactivity, Tissue distribution, Blood
Residues, ends and D or L forms follow the SMILES beside them. *: point of attachment. NODAGA = O=C(O)CN1CCN(CC(=O)O)CCN(C(CCC(=O)*)C(=O)O)CC1

{"compound": "CC[C@H](C)[C@H](NC(=O)[C@H](C)NC(=O)CNC(=O)[C@H](CCCCN)NC(=O)[C@H](Cc1ccc(O)cc1)NC(=O)[C@H](CCCCN)NC(=O)CCC(C(=O)O)N1CCN(CC(=O)O)CCN(CC(=O)O)CC1)C(=O)N[C@H](C(=O)NCC(=O)N[C@@H](CC(N)=O)C(=O)N[C@H](C(=O)N[C@@H](CCCCN)C(N)=O)[C@@H](C)CC)[C@@H](C)CC (stereo partly shown) [67Ga-BBBpS_1, metal not drawn] ({NODAGA}-KYKGAIIGNIK-NH2)", "tissue uptake at 2 min / %ID/g": 12.6}
